# Test system: COLO 205 colon
# TEST: NCI-60 one-dose screen, 48 h (100 = growth as untreated, 0 = no growth, -100 = all killed)
# TEST_CONDITIONS: 10 µM unless noted
Compounds without any hit were thinned out: in the full panel of roughly 83,000, 20% have a hit.
RESULT_TYPE: growth (%)

[[record]]
molecule = "CCOC(=O)c1c(NC(=O)c2ccc(C(F)(F)F)cc2)sc2c3c(ccc12)OCN(C)C3"
system_tested = "COLO 205 colon"
reported_measurement = -22

[[record]]
molecule = "O=C(Nc1cc(C(F)(F)F)cc(C(F)(F)F)c1)Nc1ccc2oc(=O)ccc2c1"
system_tested = "COLO 205 colon"
reported_measurement = -12.3

[[record]]
molecule = "C=C(C)[C@@H]1CC[C@]2(COP(=O)(OCC)OCC)CC[C@]3(C)[C@H](CC[C@@H]4[C@@]5(C)CC[C@H](OP(=O)(OCC)OCC)C(C)(C)[C@@H]5CC[C@]43C)[C@@H]12"
system_tested = "COLO 205 colon"
reported_measurement = 44.2

[[record]]
molecule = "CC(=O)OCCCCN1C=C/C(=C\\C(=O)n2ccc3ccccc32)c2ccccc21"
system_tested = "COLO 205 colon"
reported_measurement = 108

[[record]]
molecule = "C/C(=N\\NC(=O)/C=C/CC(=O)O)c1nnn(-c2ccc([N+](=O)[O-])cc2)c1C"
system_tested = "COLO 205 colon"
reported_measurement = 108

[[record]]
molecule = "Cc1csc(/N=C(N)/N=C(\\N)c2cccc(C#N)c2)n1"
system_tested = "COLO 205 colon"
reported_measurement = 76.1

[[record]]
molecule = "Brc1cc(-c2cc(-c3ccc4c(c3)OCCO4)[nH]n2)cs1"
system_tested = "COLO 205 colon"
reported_measurement = 57.8

[[record]]
molecule = "Cc1csc(/N=C(N)/N=C(\\N)c2cccc(Br)c2)n1"
system_tested = "COLO 205 colon"
reported_measurement = 95.3

[[record]]
molecule = "CN1CCN(c2ccc(Nc3nc(NCCNC(=O)c4ccc(F)cc4)c4sccc4n3)cc2)CC1"
system_tested = "COLO 205 colon"
reported_measurement = 44.3

[[record]]
molecule = "O=C(CSc1nc2ccccc2c(=O)n1CCc1ccccc1)Nc1ccc(S(=O)(=O)Nc2ccc(Cl)nn2)cc1"
system_tested = "COLO 205 colon"
reported_measurement = 101

[[record]]
molecule = "CC(=O)c1c([Si](C)(C)C)c2cc(C#N)ccn2c1C(=O)c1ccc(Br)cc1"
system_tested = "COLO 205 colon"
reported_measurement = 104

[[record]]
molecule = "N#Cc1nc(-c2ccc(Cl)cc2)oc1N1CCC(S(=O)(=O)N2CCOCC2)CC1"
system_tested = "COLO 205 colon"
reported_measurement = 116

[[record]]
molecule = "CN1c2ccccc2Sc2cc(/C=N/Nc3ccnc4cc(Cl)ccc34)ccc21"
system_tested = "COLO 205 colon"
reported_measurement = 101

[[record]]
molecule = "CC(=O)/C(N=Nc1ccc2oc(=O)ccc2c1)=C(\\C)O"
system_tested = "COLO 205 colon"
reported_measurement = 15.2

[[record]]
molecule = "Cc1[nH]c(C(=O)Nc2ccccc2OCc2cccc(C(=O)NC3CCNC3)c2)c(Cl)c1Cl (stereo not drawn)"
system_tested = "COLO 205 colon"
reported_measurement = -43.3

[[record]]
molecule = "COc1ccc(C(=O)c2c(N)c(C#N)cn2-c2ccc(Cl)cc2Cl)cc1"
system_tested = "COLO 205 colon"
reported_measurement = 109

[[record]]
molecule = "Clc1ccc2[nH]cc(-c3nn4cc(-c5ccncc5)nc4s3)c2c1"
system_tested = "COLO 205 colon"
reported_measurement = 69.5

[[record]]
molecule = "COc1ccc(/C=N/NC(=O)c2c(N)nn(C)c2Nc2ccccc2)cc1Oc1ccccc1"
system_tested = "COLO 205 colon"
reported_measurement = 117

[[record]]
molecule = "O=[N+]([O-])c1ccc(NC(=S)NNC(=S)Nc2ccc(Br)cc2)cc1"
system_tested = "COLO 205 colon"
reported_measurement = 112

[[record]]
molecule = "Cc1ccc(S(=O)(=O)NCCCNc2nccc(-c3[nH]c(-c4ccccc4)nc3-c3ccc(F)c(O)c3)n2)cc1"
system_tested = "COLO 205 colon"
reported_measurement = 91.9

[[record]]
molecule = "O=C(/C=C/c1cccc(C(F)(F)F)c1)Nc1cccc(C(F)(F)F)c1"
system_tested = "COLO 205 colon"
reported_measurement = 38.4

[[record]]
molecule = "Cc1ccc(C(=O)Nc2ccc(CNCCN3CCOCC3)c(C(F)(F)F)c2)cc1C#Cc1cnc2cccnn12"
system_tested = "COLO 205 colon"
reported_measurement = -18.8

[[record]]
molecule = "COc1ccc(C2CC(c3cccc(OCCCCOc4cccc(C5=NN(C(C)=O)C(c6ccc(OC)cc6)C5)c4)c3)=NN2C(C)=O)cc1 (stereo not drawn)"
system_tested = "COLO 205 colon"
reported_measurement = 82.8

[[record]]
molecule = "O=C1[C@H]2Cc3c([nH]c4ccccc34)[C@H](c3ccc(Cl)cc3)N2C(=O)CN1C1CCN(CC2CCCCC2)CC1"
system_tested = "COLO 205 colon"
reported_measurement = 51.4

[[record]]
molecule = "CCOC(=O)c1cccnc1Nc1ccc(NC(=O)Nc2ccc(Cl)c(C(F)(F)F)c2)cc1"
system_tested = "COLO 205 colon"
reported_measurement = 31.7

[[record]]
molecule = "O=S(=O)(Oc1ccc(-c2cn3ccsc3n2)cc1)c1cccc(C(F)(F)F)c1"
system_tested = "COLO 205 colon"
reported_measurement = 113

[[record]]
molecule = "CCCCOc1ccc(S(=O)(=O)N2CCN(c3nc(C)cc(N4CCOCC4)n3)CC2)cc1"
system_tested = "COLO 205 colon"
reported_measurement = 5.81

[[record]]
molecule = "COc1ccc2c(c1)c(-c1nn3cc(-c4ccncc4)nc3s1)cn2C"
system_tested = "COLO 205 colon"
reported_measurement = 81.5

[[record]]
molecule = "O=C(/C=C/c1cccc(F)c1)c1cccc(OCCCOc2cccc(C(=O)/C=C/c3cccc(F)c3)c2)c1"
system_tested = "COLO 205 colon"
reported_measurement = 82.2

[[record]]
molecule = "Oc1[nH]c2ccc(Cl)cc2c1N=Nc1nc(N=Nc2c(O)[nH]c3ccc(Cl)cc23)nc(N2CCCCC2)n1"
system_tested = "COLO 205 colon"
reported_measurement = 66.6

[[record]]
molecule = "Clc1ccc(CSc2nnc(-c3ccc(Cl)cc3)n2-c2ccccc2)cc1"
system_tested = "COLO 205 colon"
reported_measurement = 122

[[record]]
molecule = "C#Cc1nc(C(=O)NCCCCCCC(=O)NO)cs1"
system_tested = "COLO 205 colon"
reported_measurement = -61.7

[[record]]
molecule = "O=C(/C=C/c1cccc(F)c1)c1cccc(OCCCCOc2cccc(C(=O)/C=C/c3cccc(F)c3)c2)c1"
system_tested = "COLO 205 colon"
reported_measurement = 117

[[record]]
molecule = "CC(C)NC(=O)c1cc(-c2ccc(NC(=O)Nc3ccc(F)c(C(F)(F)F)c3)cc2)nc2cccnc12"
system_tested = "COLO 205 colon"
reported_measurement = 114

[[record]]
molecule = "CCOc1cccc(/C(N)=N/C(N)=N/c2nc3ccccc3s2)c1"
system_tested = "COLO 205 colon"
reported_measurement = 113

[[record]]
molecule = "C#Cc1nc(/C=C/C(=O)NO)cs1"
system_tested = "COLO 205 colon"
reported_measurement = 79.8

[[record]]
molecule = "Cc1nc(N)sc1-c1csc(Nc2ccc(C(F)(F)F)cc2)n1"
system_tested = "COLO 205 colon"
reported_measurement = 19.6

[[record]]
molecule = "CC(=O)Nc1cc(N2CCOCC2)c2nc(NC(=O)c3[nH]c(C)c(Cl)c3Cl)sc2c1"
system_tested = "COLO 205 colon"
reported_measurement = 104


* * *

# Tested on: DU-145 prostate
# TEST: NCI-60 one-dose screen, 48 h
# TEST_CONDITIONS: 10 µM unless noted
# Method: Cells are grown in 96 well plates and exposed to the test compound for 48 hours. Compounds are tested at a single concentration, which is 10^-5 M for most compounds. The reported endpoint is percent growth (GI% or GIPRCNT), where numbers from 0 - 100% represent growth inhibition, and numbers from -100% - 0 represent cell death. For example, a value of 40 represents 60% growth inhibition. A value of 0 means no net growth occurred over the course of the experiment. […]
About 83,000 compounds went through this panel and 20% of them were active in at least one assay; those are over-represented in the sample as a whole. Activity calls are given as the source filed them. How the source made its calls: active means growth percent below 10; inactive means the rest.
Classes used: active, inactive

[[record]]
compound = "CCOC(=O)c1c(NC(=O)c2ccc(C(F)(F)F)cc2)sc2c3c(ccc12)OCN(C)C3"
discrete_label = "inactive"

[[record]]
compound = "CCCCCCNC(=O)Oc1ccc(/C(=C(/C)c2ccc(Cl)cc2)c2ccc(OCCN3CCCCCC3)cc2)cc1"
discrete_label = "inactive"

[[record]]
compound = "COc1cc(C(=O)c2cc(C(C)=O)c3c(C)cccn23)cc(OC)c1OC"
discrete_label = "inactive"

[[record]]
compound = "O=C(CSc1nnc(-c2ccc(Cl)cc2)n1-c1ccccc1)Nc1ccc(Cl)cc1"
discrete_label = "inactive"

[[record]]
compound = "COc1ccc(-c2nc(C#N)c(N3CCC(S(=O)(=O)N4CCOCC4)CC3)o2)cc1"
discrete_label = "inactive"

[[record]]
compound = "C/C(=C(/C)C1CC1CCNC1CCC(NC(=O)OC(C)(C)C)CC1)c1ccccc1 (stereo not given)"
discrete_label = "inactive"

[[record]]
compound = "CC(Nc1c(C#N)cnc2ccc(-c3cncc(-c4n[nH]c(=O)o4)c3)cc12)c1ccccc1 (stereo not given)"
discrete_label = "active"

[[record]]
compound = "Cc1cc(NS(=O)(=O)c2ccc(NC(=O)CSc3nc4ccccc4c(=O)n3-c3ccccc3)cc2)no1"
discrete_label = "inactive"

[[record]]
compound = "COc1cccc2c1C=CC1(O2)Oc2cccc(OC)c2C=C1C (stereo not given)"
discrete_label = "inactive"

[[record]]
compound = "C#CCOc1ccc(/C=N/Nc2nc(-c3ccc(OC)cc3)cs2)cc1"
discrete_label = "inactive"

